Entries annotated with measured melting point
measured_metric: melting point

- molecule: "C[C@@H]1[C@H](c2ccccc2)OC(=O)N1C(=O)CCc1ccccc1"
  measured_metric: "melting point"
  measured_result: "99 to 100 °C"
- molecule: "COc1cccc(CNC(=O)c2nc3ccc(C#N)cc3c(=O)[nH]2)c1"
  measured_metric: "melting point"
  measured_result: "206 to 208 °C"
- molecule: "CCCCCCCCCc1ccc(C(=O)CCCCC(=O)O)cc1"
  measured_metric: "melting point"
  measured_result: "29 to 31 °C"
- molecule: "COC(=O)C(NS(=O)(=O)c1ccc(-c2ccc(NC(=O)c3oc4cccc(CO[Si](C)(C)C(C)(C)C)c4c3C)cc2)cc1)C(C)C (stereo not given)"
  measured_metric: "melting point"
  measured_result: "204 to 206 °C"
- molecule: "COc1cccc([C@H]2O[C@H](CC(=O)Nc3cccc(CCC(=O)O)c3)C(=O)N(CC(C)(C)C)c3ccc(Cl)cc32)c1OC"
  measured_metric: "melting point"
  measured_result: "172 to 173 °C"
- molecule: "CONc1nc(C#Cc2ccccc2)nc2c1ncn2[C@@H]1O[C@H](CO)[C@@H](O)[C@H]1O"
  measured_metric: "melting point"
  measured_result: "175 to 177 °C"
- molecule: "Nc1cc(-c2ccc(Cl)c(Cl)c2)[nH]n1"
  measured_metric: "melting point"
  measured_result: "169 to 170 °C"
- molecule: "CCOC(=O)NN=Cc1nc[nH]c1C"
  measured_metric: "melting point"
  measured_result: "195 to 203 °C"
- molecule: "O=C(O)c1c(F)cc(F)c(F)c1NCc1ccccc1"
  measured_metric: "melting point"
  measured_result: "140 to 141 °C"
- molecule: "CC(C)(C)CC(=O)NCc1cccs1"
  measured_metric: "melting point"
  measured_result: "83 to 84 °C"
